Where these numbers come from: ChEMBL document CHEMBL1153898

ASSAYED SYSTEM: Serine/threonine-protein kinase pim-1 (Homo sapiens, UniProt P11309)
Sequence (P11309 whole entry, looked up): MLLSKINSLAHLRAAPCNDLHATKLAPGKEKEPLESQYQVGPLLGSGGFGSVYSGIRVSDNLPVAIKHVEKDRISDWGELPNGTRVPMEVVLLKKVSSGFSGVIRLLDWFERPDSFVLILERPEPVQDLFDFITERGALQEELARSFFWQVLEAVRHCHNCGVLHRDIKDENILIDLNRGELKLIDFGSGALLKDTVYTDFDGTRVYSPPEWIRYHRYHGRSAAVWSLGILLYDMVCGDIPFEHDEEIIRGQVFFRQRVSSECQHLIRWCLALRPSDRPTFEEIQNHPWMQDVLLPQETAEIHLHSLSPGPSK
EXPERIMENT: Inhibition of human recombinant Pim1 expressed in insect cells at 100 uM
ENDPOINT LABEL: inhibition (%)
Please reply with the bare figure in % and do not write the unit itself.

{"columns": ["COMPOUND", "ASSAYED SYSTEM", "ENDPOINT LABEL", "RESULT UNIT", "MEASURED"],
 "data": [
  ["CC(=O)C1=C(O)C(=O)N(CCc2c[nH]c3ccccc23)C1c1cccc(O)c1 (stereo not given)", "Serine/threonine-protein kinase pim-1 (Homo sapiens, UniProt P11309)", "inhibition", "%", 84],
  ["C/C(=C/c1sc2ccccc2[n+]1CCO)C/C=C1/Sc2ccccc2N1CCO", "Serine/threonine-protein kinase pim-1 (Homo sapiens, UniProt P11309)", "inhibition", "%", -4],
  ["CC(=O)C1=C(O)C(=O)N(CCc2c[nH]c3ccccc23)C1c1ccc(O)cc1 (stereo not given)", "Serine/threonine-protein kinase pim-1 (Homo sapiens, UniProt P11309)", "inhibition", "%", 92]
]}

What value of inhibition on Serine/threonine-protein kinase pim-1 (Homo sapiens, UniProt P11309) does CCOc1ccc(C2C(C(C)=O)=C(O)C(=O)N2CCc2c[nH]c3ccccc23)cc1 (stereo not given) have?
71

What value of inhibition on Serine/threonine-protein kinase pim-1 (Homo sapiens, UniProt P11309) does CC(=O)C1=C(O)C(=O)N(CCc2c[nH]c3ccccc23)C1c1ccc(C)cc1 (stereo not given) have?
54
